molecular target: CCDC6-RET (Homo sapiens, UniProt P07949+Q16204+Q96SW2); construct: CCDC6 (natural N-terminal fusion partner, UniProt Q16204); endogenous in cells; host or cells: TPC-1 (parental, papillary thyroid carcinoma); assay: Cellular RET degradation, AlphaLISA, TPC-1 cell line; assay type: cell-based; settings: TPC1, human, 24 h, read-out: Cell Density TPC-1/CCDC6-RET Ymax %
Sequence (Q16204+P07949 fused): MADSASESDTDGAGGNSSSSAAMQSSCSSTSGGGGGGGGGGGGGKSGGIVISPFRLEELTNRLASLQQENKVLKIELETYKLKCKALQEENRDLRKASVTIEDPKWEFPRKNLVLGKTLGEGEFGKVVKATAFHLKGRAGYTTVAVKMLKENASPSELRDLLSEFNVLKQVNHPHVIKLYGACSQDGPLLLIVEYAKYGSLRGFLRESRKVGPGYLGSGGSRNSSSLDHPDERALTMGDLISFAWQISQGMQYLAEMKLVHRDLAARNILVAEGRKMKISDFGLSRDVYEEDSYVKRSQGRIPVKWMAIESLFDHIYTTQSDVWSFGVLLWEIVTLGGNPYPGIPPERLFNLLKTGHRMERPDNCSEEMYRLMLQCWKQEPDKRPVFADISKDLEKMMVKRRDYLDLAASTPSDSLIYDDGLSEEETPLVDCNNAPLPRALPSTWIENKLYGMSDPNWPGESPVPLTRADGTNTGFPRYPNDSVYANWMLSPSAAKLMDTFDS
Sequence (Q96SW2 whole entry, the tested form may be a part): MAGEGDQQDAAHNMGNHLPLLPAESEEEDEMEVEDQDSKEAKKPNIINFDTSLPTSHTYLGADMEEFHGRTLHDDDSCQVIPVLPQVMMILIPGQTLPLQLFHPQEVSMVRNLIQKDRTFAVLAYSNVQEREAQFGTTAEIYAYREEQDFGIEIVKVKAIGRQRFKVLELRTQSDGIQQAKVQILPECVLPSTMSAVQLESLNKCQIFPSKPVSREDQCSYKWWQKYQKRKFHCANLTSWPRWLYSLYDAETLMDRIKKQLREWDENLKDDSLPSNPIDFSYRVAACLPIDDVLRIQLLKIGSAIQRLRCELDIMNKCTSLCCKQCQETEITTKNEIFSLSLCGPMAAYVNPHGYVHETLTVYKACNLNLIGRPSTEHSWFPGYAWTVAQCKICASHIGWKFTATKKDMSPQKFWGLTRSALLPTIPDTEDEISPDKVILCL
Sequence (Q16531 whole entry partner, the tested form may be a part): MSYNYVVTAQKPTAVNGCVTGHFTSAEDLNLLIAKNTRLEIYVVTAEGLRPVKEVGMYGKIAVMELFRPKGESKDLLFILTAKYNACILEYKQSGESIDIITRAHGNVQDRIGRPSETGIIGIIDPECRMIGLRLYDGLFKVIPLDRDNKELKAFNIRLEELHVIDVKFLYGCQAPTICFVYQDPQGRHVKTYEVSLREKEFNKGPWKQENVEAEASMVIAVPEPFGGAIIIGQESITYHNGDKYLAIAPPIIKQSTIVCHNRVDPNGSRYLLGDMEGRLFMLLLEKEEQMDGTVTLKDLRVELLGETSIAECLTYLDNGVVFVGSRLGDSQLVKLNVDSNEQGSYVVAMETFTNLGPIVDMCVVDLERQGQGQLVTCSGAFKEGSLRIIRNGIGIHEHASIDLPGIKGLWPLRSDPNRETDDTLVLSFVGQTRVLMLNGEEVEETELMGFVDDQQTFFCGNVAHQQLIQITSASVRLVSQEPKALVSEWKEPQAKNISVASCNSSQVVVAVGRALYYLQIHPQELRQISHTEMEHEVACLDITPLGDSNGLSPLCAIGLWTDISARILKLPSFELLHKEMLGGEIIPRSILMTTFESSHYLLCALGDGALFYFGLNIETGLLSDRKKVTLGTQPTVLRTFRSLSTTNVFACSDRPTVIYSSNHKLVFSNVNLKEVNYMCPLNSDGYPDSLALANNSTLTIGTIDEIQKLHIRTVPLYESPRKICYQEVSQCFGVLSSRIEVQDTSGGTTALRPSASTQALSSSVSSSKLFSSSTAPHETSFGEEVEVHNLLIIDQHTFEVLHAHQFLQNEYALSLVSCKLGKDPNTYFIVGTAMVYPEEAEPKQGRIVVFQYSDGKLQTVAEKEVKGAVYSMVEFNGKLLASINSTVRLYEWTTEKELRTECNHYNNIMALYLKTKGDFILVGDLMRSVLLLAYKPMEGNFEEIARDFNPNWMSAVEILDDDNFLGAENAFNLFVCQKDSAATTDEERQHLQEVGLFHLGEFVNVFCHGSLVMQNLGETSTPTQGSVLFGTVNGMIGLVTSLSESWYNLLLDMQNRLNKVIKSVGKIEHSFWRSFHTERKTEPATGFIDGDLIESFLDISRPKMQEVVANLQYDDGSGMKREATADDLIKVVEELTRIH
EXPERIMENTAL ENDPOINT: Dmax

Here are 2 molecules together with their reported answers.
CCOc1cc(-c2ccc(N3CCC(NC(=O)c4cc(F)ccc4F)(C(=O)NCCCCCCCCCCNc4ccc5c(N6CCC(=O)NC6=O)nn(C)c5c4)CC3)nc2)c2c(C#N)cnn2c1 [Example 153]; > 90%
CCOc1cc(-c2ccc(N3CCC(NC(=O)c4cc(F)ccc4F)(C(=O)NCCCCCCCCNc4ccc5c(N6CCC(=O)NC6=O)nn(C)c5c4)CC3)nc2)c2c(C#N)cnn2c1 [Example 152]; 60 to 90%

Next molecule, Dmax to be filled in.
Consider the molecule shown here: CCOc1cc(-c2ccc(N3CCC(CN4CCN(C(=O)CN5CCC(c6ccc7c(N8CCC(=O)NC8=O)nn(C)c7c6)CC5)CC4)(NC(=O)c4cc(F)ccc4F)CC3)nc2)c2c(C#N)cnn2c1 [Example 44] What is its recorded Dmax?
60 to 90%

Numbers sourced from patent US20260356830A1.
